- System: Fibroblast
- PROTOCOL: Multiplex assay against human fibroblast
- Assay type: toxicity, cell-based
- RECORDED_CONDITIONS: 24 h, 10 µM, compound concentration 10 uM, replicate 2
Decide using Population Tubulin-Different-Phenotype (%): a value greater than or equal to 40% is yes (1), a smaller one is no (0).

Would you please look over these solved cases?
# COMPOUND, ASSAY_SYSTEM, GROUP
measured = [
    ("c1cn2cc(-c3ccc4cn[nH]c4c3)nc(Nc3ccc(N4CCOCC4)cc3)c2n1", "Fibroblast", "no (0)"),
    ("CC(C)NCC(O)COc1ccc(CCOCC2CC2)cc1.Cl (stereo not drawn) [BETAXOLOL HYDROCHLORIDE]", "Fibroblast", "yes (1)"),
    ("C=CC(=O)Nc1cc2c(Nc3ccc(F)c(Cl)c3)ncnc2cc1OCCCN1CCOCC1.Cl.Cl [CANERTINIB DIHYDROCHLORIDE]", "Fibroblast", "no (0)"),
    ("CN(C)C(=O)/C(C#N)=C/c1ccc(-c2nc3cnc4[nH]ccc4c3n2C2CCCCC2)o1", "Fibroblast", "yes (1)"),
    ("Cc1[nH]c(/C=C2\\C(=O)Nc3ccc(S(=O)(=O)N(C)c4cccc(Cl)c4)cc32)c(C)c1C(=O)N1CCN(C)CC1", "Fibroblast", "yes (1)"),
]

Check if Population Tubulin-Different-Phenotype (%) >= 40% (inclusive). Item: Cc1nc(Nc2n[nH]c3c2CN(C(=O)N[C@H](CN(C)C)c2ccccc2)C3(C)C)c2sccc2n1
yes (1)

Now this one: Cl.N#Cc1ccc2[nH]cc(CCCCN3CCN(c4ccc5oc(C(N)=O)cc5c4)CC3)c2c1 [VILAZODONE HYDROCHLORIDE]
yes (1)

Now this one: Cc1cc(C)cc(-c2cnc3cc(Cl)c(-c4cccc(O)c4)cc3c2OCCCN)c1
yes (1)
